Hello, the source for this data is PubChem BioAssay AID624404, in case you need it.

- Test system: D54 LucT luciferase reporter counterscreen, luminescence, 24 h
- testName: reporter signal increase, D54 LucT cells – cell-based, luminescence, cherry pick, counter-screen for N-linked glycosylation inhibitor project, dose response (AID 624404)
Inconclusive results are not listed.
Listing of recorded AC35 by entry.

// known answers, use as guide
Report measured AC35 on D54 LucT luciferase reporter counterscreen, luminescence, 24 h; entry: O=C(Nc1ccncc1)C1CCCN(S(=O)(=O)c2cccc3cccnc23)C1 (stereo unspecified)
4670 nM

Report measured AC35 on D54 LucT luciferase reporter counterscreen, luminescence, 24 h; entry: COc1cc(Nc2c3ccccc3nc3ccccc23)cc(OC)c1OC
4160 nM

Report measured AC35 on D54 LucT luciferase reporter counterscreen, luminescence, 24 h; entry: CC(=O)c1cccc(Nc2cc(C)nc3c(C)cc(C)cc23)c1
23.4 nM

---
Report measured AC35 on D54 LucT luciferase reporter counterscreen, luminescence, 24 h; entry: Cc1ccc(C(=O)c2coc3c2C(=O)C(=O)c2ccccc2-3)cc1
4050 nM
